Each recorded value in this set is attributed to ChEMBL document CHEMBL3588850.

Reported K values follow for various molecules
Test system: Nucleic Acid
ASSAY PROTOCOL: Binding affinity to HIV1 TAR RNA U3 bulge mutant at assessed as association constant at pH 6.8 by ethidium bromide displacement assay based Scatchard analysis method
Assay type: nucleic-acid assay
CONDITION SET: Human immunodeficiency virus 1

>  <ITEM SMILES>
NC[C@@H]1O[C@H](O[C@H]2[C@@H](O)[C@H](O[C@@H]3[C@@H](O)[C@H](N)C[C@H](N)[C@H]3O[C@H]3O[C@H](CN)[C@@H](O)[C@H](O)[C@H]3N)O[C@@H]2Cn2cc(CCCc3cn(C[C@H]4O[C@@H](O[C@@H]5[C@@H](O)[C@H](N)C[C@H](N)[C@H]5O[C@H]5O[C@H](CN)[C@@H](O)[C@H](O)[C@H]5N)[C@H](O)[C@@H]4O[C@H]4O[C@@H](CN)[C@@H](O)[C@H](O)[C@H]4N)nn3)nn2)[C@H](N)[C@@H](O)[C@@H]1O

>  <K (×10⁶ /M)>
6.9

$$$$
>  <ITEM SMILES>
C/C(CCc1cn(C[C@H]2O[C@@H](O[C@@H]3[C@@H](O)[C@H](N)C[C@H](N)[C@H]3O[C@H]3O[C@H](CN)[C@@H](O)[C@H](O)[C@H]3N)[C@H](O)[C@@H]2O[C@H]2O[C@@H](CN)[C@@H](O)[C@H](O)[C@H]2N)nn1)=C(/C)CCc1cn(C[C@H]2O[C@@H](O[C@@H]3[C@@H](O)[C@H](N)C[C@H](N)[C@H]3O[C@H]3O[C@H](CN)[C@@H](O)[C@H](O)[C@H]3N)[C@H](O)[C@@H]2O[C@H]2O[C@@H](CN)[C@@H](O)[C@H](O)[C@H]2N)nn1

>  <K (×10⁶ /M)>
2.6

$$$$
>  <ITEM SMILES>
NC[C@@H]1O[C@H](O[C@H]2[C@@H](O)[C@H](O[C@@H]3[C@@H](O)[C@H](N)C[C@H](N)[C@H]3O[C@H]3O[C@H](CN)[C@@H](O)[C@H](O)[C@H]3N)O[C@@H]2Cn2cc(CCCCCCc3cn(C[C@H]4O[C@@H](O[C@@H]5[C@@H](O)[C@H](N)C[C@H](N)[C@H]5O[C@H]5O[C@H](CN)[C@@H](O)[C@H](O)[C@H]5N)[C@H](O)[C@@H]4O[C@H]4O[C@@H](CN)[C@@H](O)[C@H](O)[C@H]4N)nn3)nn2)[C@H](N)[C@@H](O)[C@@H]1O

>  <K (×10⁶ /M)>
3.8

$$$$

* * *

Test system: Nucleic Acid
ASSAY PROTOCOL: Binding affinity to HIV1 TAR RNA bulgeless tetraloop mutant assessed as association constant at pH 6.8 by ethidium bromide displacement assay based Scatchard analysis method
Type: nucleic-acid assay
CONDITION SET: Human immunodeficiency virus 1

>  <ITEM SMILES>
C/C(CCc1cn(C[C@H]2O[C@@H](O[C@@H]3[C@@H](O)[C@H](N)C[C@H](N)[C@H]3O[C@H]3O[C@H](CN)[C@@H](O)[C@H](O)[C@H]3N)[C@H](O)[C@@H]2O[C@H]2O[C@@H](CN)[C@@H](O)[C@H](O)[C@H]2N)nn1)=C(/C)CCc1cn(C[C@H]2O[C@@H](O[C@@H]3[C@@H](O)[C@H](N)C[C@H](N)[C@H]3O[C@H]3O[C@H](CN)[C@@H](O)[C@H](O)[C@H]3N)[C@H](O)[C@@H]2O[C@H]2O[C@@H](CN)[C@@H](O)[C@H](O)[C@H]2N)nn1

>  <TESTED ON>
Nucleic Acid

>  <UNIT TAG>
×10⁷ /M

>  <K>
2.8

$$$$
>  <ITEM SMILES>
NC[C@@H]1O[C@H](O[C@H]2[C@@H](O)[C@H](O[C@@H]3[C@@H](O)[C@H](N)C[C@H](N)[C@H]3O[C@H]3O[C@H](CN)[C@@H](O)[C@H](O)[C@H]3N)O[C@@H]2Cn2cc(-c3cccc(-c4cn(C[C@H]5O[C@@H](O[C@@H]6[C@@H](O)[C@H](N)C[C@H](N)[C@H]6O[C@H]6O[C@H](CN)[C@@H](O)[C@H](O)[C@H]6N)[C@H](O)[C@@H]5O[C@H]5O[C@@H](CN)[C@@H](O)[C@H](O)[C@H]5N)nn4)c3)nn2)[C@H](N)[C@@H](O)[C@@H]1O

>  <TESTED ON>
Nucleic Acid

>  <UNIT TAG>
×10⁷ /M

>  <K>
6.9

$$$$
